molecular target: Cytochrome P450 3A4 (Homo sapiens) (UniProt P08684); assay: qHTS Assay for Inhibitors and Substrates of Cytochrome P450 3A4 (AID 884); conditions: recombinant CYP3A4, Luciferin-PPXE luminescence; series mostly up to 57.1 µM; further: nearly all actives have a fitted effect of over 50% in size
Sequence (P08684 whole entry, looked up): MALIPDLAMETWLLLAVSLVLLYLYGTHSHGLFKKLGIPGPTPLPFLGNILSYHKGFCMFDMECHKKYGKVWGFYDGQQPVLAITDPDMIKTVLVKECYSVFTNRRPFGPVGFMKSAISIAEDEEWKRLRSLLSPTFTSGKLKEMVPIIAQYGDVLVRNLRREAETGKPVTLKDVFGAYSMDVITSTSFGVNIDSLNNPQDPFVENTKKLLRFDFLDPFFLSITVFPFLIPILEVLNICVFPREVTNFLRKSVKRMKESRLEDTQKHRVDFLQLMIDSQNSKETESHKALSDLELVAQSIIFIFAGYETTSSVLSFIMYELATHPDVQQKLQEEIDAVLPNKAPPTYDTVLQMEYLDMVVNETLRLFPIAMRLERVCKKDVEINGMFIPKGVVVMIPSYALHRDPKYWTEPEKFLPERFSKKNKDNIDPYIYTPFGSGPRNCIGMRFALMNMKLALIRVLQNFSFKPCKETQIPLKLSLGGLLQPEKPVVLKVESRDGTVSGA
Inconclusive results are not listed. Calls of active or inactive are those of the source. The call rests on the fitted dose curve; in most records, active means well fitted inhibition curve with a large enough effect; inconclusive means small, poorly fitted or top-dose-only effect; inactive means no such curve, though single readings can be large or run the other way.
Use one of these outcomes when replying: active, inactive

Solved cases below.
* CS(=O)(=O)Nc1cccc(-c2cncnc2Nc2ccccc2)c1 | active
* Cn1c(=O)c(-c2ccccc2)nc2cnc(Oc3ccccc3)nc21 | inactive

Hey, what did the test say about COc1ncc2nc(-c3cccs3)c(=O)n(Cc3ccc(F)cc3)c2n1 ?
active

Hey, what did the test say about Cc1ccccc1-c1cncnc1NCCN1CCOCC1 ?
active

Hey, what did the test say about CC1=CC2C(CC1=O)C(C)=CCC2C(C)C (stereo not drawn) ?
inactive

Hey, what did the test say about O=C(c1ccco1)N1CCC2(CC1)CCN(c1ccccn1)CC2 ?
inactive

Hey, what did the test say about Cc1cnc(CNc2ncncc2-c2ccc(N(C)C)cc2)cn1 ?
active

Hey, what did the test say about COc1ccc(C(=O)N2CCC[C@@]3(CCN(c4cccc(-c5ccccc5)c4)C3)C2)cc1 ?
active
